Just for reference, patent US9624200B2 is where these values come from.

What pIC50 was measured for each of the following?
- System: PDE4 from human U-937 cells
- assay info: PDE4 Inhibition Assay
- Format: biochemical
- run parameters: 1 μM cAMP, [3H]-cAMP, read-out: Potency Class (Inhibitory Concentration) in the PDE4 assay
pIC50: −log10 of the molar value.

stdin: # lookup: pIC50 of COc1ccc(N2CCN(C(=O)Cc3nc(C)n[nH]3)[C@@H](Cc3ccccc3)C2)cc1OC(C)C
stdout: > 6.70

stdin: Record: COc1ccc(N2CCN(C(=O)CN3CC[C@H](O)C3)[C@@H](Cc3ccccc3)C2)cc1OC1CCCC1
stdout: 6.00 to 6.70

stdin: Same question for COc1ccc(N2CCN(C(=O)[C@@H]3CCC(=O)O3)[C@@H](Cc3ccccc3)C2)cc1OC1CCCC1 please.
stdout: < 6.00

stdin: Another: COc1ccc(N2CCN(C(=O)[C@H]3C[C@@H](O)CN3)[C@@H](Cc3ccccc3)C2)cc1OC1CCCC1
stdout: < 6.00

stdin: Can you check COc1ccc(N2CCN(C(=O)Cc3cnc[nH]3)[C@@H](Cc3ccccc3)C2)cc1OC(C)C next?
stdout: > 6.70

stdin: Param item: CCc1nn(C2CCC2)c2cc(N3CCN(C(=O)Cc4ccccn4)[C@@H](Cc4ccccc4)C3)ccc12
stdout: < 6.00

stdin: Please do the same for CCc1nn(C2CCC2)c2cc(N3CCN(C(=O)Cc4ncccn4)[C@@H](Cc4ccccc4)C3)ccc12 as well.
stdout: < 6.00

###

- Test system: PDE4 from human U-937 cells
- assay info: PDE4 Inhibition Assay
- Assay type: biochemical
- run parameters: 1 μM cAMP, [3H]-cAMP, read-out: Potency Class (Inhibitory Concentration) in the PDE4 assay
metric name: IC50

stdin: Look up IC50: COc1ccc(N2CCN(C(=O)Cc3cc(C)[nH]n3)[C@@H](Cc3ccccc3)C2)cc1OC1CCCC1 [Compound 305]
stdout: < 200 nM

stdin: Try CCc1nn(C2CCC2)c2cc(N3CCN(C(=O)CN)[C@@H](Cc4ccccc4)C3)ccc12 [Compound 351] next.
stdout: > 1000 nM

stdin: What about COc1ccc(N2CCN(C(=O)Cc3n[nH]c(C)n3)[C@@H](CC(C)C)C2)cc1OC(C)C [Compound 377] ?
stdout: 200 to 1000 nM

stdin: Now try COc1ccc(N2CCN(C(=O)[C@@H]3CNC(=O)N3)[C@@H](Cc3ccccc3)C2)cc1OC1CCCC1 [Compound 292] .
stdout: < 200 nM

stdin: Input COc1ccc(N2CCN(C(=O)Cc3cc[nH]c3)[C@@H](Cc3ccccc3)C2)cc1OC1CCCC1 [Compound 307]
stdout: < 200 nM

stdin: Check COc1ccc(N2CCN(C(=O)Cc3cnc[nH]3)[C@@H](Cc3ccccc3)C2)cc1OC1CCCC1 [Compound 240] too.
stdout: < 200 nM

stdin: Lookup CCc1nn(C(C)C)c2cc(N3CCN(C(C)=O)[C@@H](Cc4ccccc4)C3)ccc12 [Compound 379]
stdout: > 1000 nM

stdin: Moving on to COc1ccc(N2CCN(C(=O)c3ccc(O)c(O)c3)[C@@H](Cc3ccccc3)C2)cc1OC1CCCC1 [Compound 286]
stdout: > 1000 nM

stdin: Input COc1ccc(N2CCN(C(=O)CCc3cnc[nH]3)[C@@H](Cc3ccccc3)C2)cc1OC1CCCC1 [Compound 239]
stdout: > 1000 nM

stdin: And COc1ccc(N2CCN(C(=O)Cc3nn[nH]n3)[C@@H](Cc3ccccc3)C2)cc1OC1CCC1 [Compound 335] ?
stdout: < 200 nM

stdin: Same question, COc1ccc(N2CCN(C(=O)Cc3nn[nH]n3)[C@@H](Cc3ccccc3)C2)cc1OC1CCCC1 [Compound 294] this time
stdout: < 200 nM

stdin: Next molecule: COc1ccc(N2CCN(CC(N)=O)[C@@H](Cc3ccccc3)C2)cc1OC1CCC1 [Compound 268]
stdout: < 200 nM

stdin: Record: COc1ccc(N2CCN(C(=O)Cc3nc(N)n[nH]3)[C@@H](Cc3ccccc3)C2)cc1OC(C)C [Compound 337]
stdout: < 200 nM

stdin: Can you handle COc1ccc(N2CCN(C(=O)COC(C)=O)[C@@H](Cc3ccccc3)C2)cc1OC1CCCC1 [Compound 284] next?
stdout: > 1000 nM

stdin: How about this molecule: COc1ccc(N2CCN(C(C)=O)[C@@H](CN3Cc4ccccc4C3)C2)cc1OC1CCCC1 [Compound 252]
stdout: 200 to 1000 nM

###

- Test system: PDE4 from human U-937 cells
- assay info: PDE4 Inhibition Assay
- Type: biochemical
- run parameters: 1 μM cAMP, [3H]-cAMP, read-out: Potency Class (Inhibitory Concentration) in the PDE4 assay
pIC50: −log10 of the molar value.
Kindly supply the reported pIC50 values for the records listed here.

stdin: Please report the recorded pIC50 for Cc1nc(CC(=O)N2CCN(c3ccc(OC(F)F)c(OCC4CC4)c3)C[C@@H]2CC(C)C)n[nH]1 .
stdout: > 6.70

stdin: Moving on to the next molecule: COc1ccc(N2CCN(C(=O)[C@H]3C[C@H](O)CN3)[C@@H](Cc3ccccc3)C2)cc1OC1CCCC1
stdout: < 6.00

stdin: Record: COc1ccc(N2CCN(C(=O)Cc3n[nH]c(C)n3)[C@@H](CN3CCCC3)C2)cc1OC1CCCC1
stdout: < 6.00

stdin: Also Cc1n[nH]c(CC(=O)N2CCN(c3ccc(OC(F)F)c(OC(F)F)c3)C[C@@H]2Cc2ccccc2)n1 ?
stdout: > 6.70

###

Exercise: state measured pIC50 for each of the compounds provided.
- Tested on: PDE4 from human U-937 cells
- assay info: PDE4 Inhibition Assay
- Type: biochemical
- run parameters: 1 μM cAMP, [3H]-cAMP, read-out: Potency Class (Inhibitory Concentration) in the PDE4 assay
pIC50: −log10 of the molar value.

stdin: Endpoint output: pIC50 of COc1ccc(N2CCN(C(=O)[C@H]3CCC(=O)O3)[C@@H](Cc3ccccc3)C2)cc1OC1CCCC1 . Value?
stdout: < 6.00

stdin: Another: COc1ccc(N2CCN(C(=O)Cc3n[nH]c(=O)[nH]3)[C@@H](Cc3ccccc3)C2)cc1OC1CCCC1
stdout: 6.00 to 6.70

stdin: Please answer likewise for COCC(=O)N1CCN(c2ccc(OC)c(OC3CCCC3)c2)C[C@@H]1Cc1ccccc1
stdout: 6.00 to 6.70

stdin: Next record, please: COc1ccc(N2CCN(C(=O)Cc3ccco3)[C@@H](Cc3ccccc3)C2)cc1OC1CCC1
stdout: 6.00 to 6.70

stdin: What about COc1ccc(N2CCN(C(=O)Cc3cncn3C)[C@@H](Cc3ccccc3)C2)cc1OC1CCCC1 ?
stdout: 6.00 to 6.70

stdin: Here is the next compound: COc1ccc(N2CCN(C(C)=O)[C@@H](Cc3cccc(C)c3)C2)cc1OC1CCCC1
stdout: > 6.70

stdin: Another compound to check: COc1ccc(N2CCN(C(=O)C3(O)CCC3)[C@@H](Cc3ccccc3)C2)cc1OC1CCCC1
stdout: 6.00 to 6.70

stdin: Likewise for COc1ccc(N2CCN(C(=O)Cc3ncccn3)[C@@H](Cc3ccccc3)C2)cc1OC1CCC1 ?
stdout: > 6.70

###

Exercise: for every item that follows, state its recorded IC50.
- Tested on: PDE4 from human U-937 cells
- assay info: PDE4 Inhibition Assay
- Format: biochemical
- run parameters: 1 μM cAMP, [3H]-cAMP, read-out: Potency Class (Inhibitory Concentration) in the PDE4 assay

stdin: So what does the record say about IC50 for COc1ccc(N2CCN(C(=O)C3CNC(=O)N3)[C@@H](Cc3ccccc3)C2)cc1OC1CCCC1 (stereo partly drawn) ?
stdout: < 200 nM

stdin: Let us now turn to COc1ccc(N2CCN(C(C)=O)[C@@H](CN3CCCC3)C2)cc1OC1CCCC1
stdout: > 1000 nM

stdin: CCc1nn(C2CCC2)c2cc(N3CCN(CC(N)=O)[C@@H](Cc4ccccc4)C3)ccc12 ?
stdout: > 1000 nM

stdin: One more molecule: COc1ccc(N2CCN(C(=O)Cc3n[nH]c([N+](=O)[O-])n3)[C@@H](Cc3ccccc3)C2)cc1OC1CCC1
stdout: 200 to 1000 nM

stdin: Subsequent entry: CCOc1ccc(N2CCN(C(C)=O)[C@@H](Cn3cccn3)C2)cc1OC1CCCC1
stdout: > 1000 nM

stdin: Next molecule: NC(=O)CN1CCN(c2ccc(OC(F)F)c(OC3CCC3)c2)C[C@@H]1Cc1ccccc1
stdout: < 200 nM

stdin: Now consider COc1ccc(N2CCN(CCC(N)=O)[C@@H](Cc3ccccc3)C2)cc1OC1CCCC1 .
stdout: < 200 nM

stdin: Moving on to NC(=O)CC(=O)N1CCN(c2ccc(OC(F)F)c(OC3CCC3)c2)C[C@@H]1Cc1ccccc1
stdout: < 200 nM

stdin: # iterate: COc1ccc(N2CCN(C(=O)Cc3ccncc3)[C@@H](Cc3ccccc3)C2)cc1OC1CCCC1
stdout: > 1000 nM

stdin: Field entry: COc1ccc(N2CCN(C(=O)Cn3ccnc3C)[C@@H](Cc3ccccc3)C2)cc1OC1CCCC1
stdout: > 1000 nM

stdin: Another molecule to check: COc1ccc(N2CCN(C(=O)Cc3c[nH]cn3)[C@@H](CC(C)C)C2)cc1OC1CCCC1
stdout: < 200 nM

stdin: Further, for COc1ccc(N2CCN(C(=O)C(C)C)[C@@H](Cc3ccccc3)C2)cc1OC1CCCC1 ?
stdout: > 1000 nM

stdin: Try the molecule CCc1nn(C2CCC2)c2cc(N3CCN(C(=O)CC(N)=O)[C@@H](Cc4ccccc4)C3)ccc12
stdout: < 200 nM

stdin: Next molecule: COc1ccc(N2CCN(C(=O)Cc3n[nH]c(N)n3)[C@@H](Cc3ccccc3)C2)cc1OC1CCC1
stdout: < 200 nM

stdin: Another molecule to check: COc1ccc(N2CCN(C(=O)Cc3cn(C)cn3)[C@@H](CC(C)C)C2)cc1OC1CCC1
stdout: 200 to 1000 nM

stdin: Likewise for CC(C)C[C@H]1CN(c2ccc(OC(F)F)c(OCC3CC3)c2)CCN1C(=O)Cc1c[nH]cn1 ?
stdout: 200 to 1000 nM

stdin: Further, for CCc1nn(C2CCC2)c2cc(N3CCN(CCC(N)=O)[C@@H](Cc4ccccc4)C3)ccc12 ?
stdout: > 1000 nM

stdin: Then CCOc1ccc(N2CCN(C(=O)Cc3n[nH]c(C)n3)[C@@H](Cn3cccn3)C2)cc1OC1CCCC1 ?
stdout: < 200 nM

stdin: Next molecule up: COc1ccc(N2CCN(C(=O)Cc3n[nH]c(C)n3)[C@@H](Cc3ccccc3)C2)cc1OC(F)F
stdout: < 200 nM

stdin: Record: COc1ccc(N2CCN(C(=O)Cc3cn(C)cn3)[C@@H](Cc3ccccc3)C2)cc1OC1CCCC1
stdout: < 200 nM

stdin: Next: COc1ccc(N2CCN(C(=O)c3cc[nH]n3)[C@@H](Cc3ccccc3)C2)cc1OC1CCCC1
stdout: > 1000 nM

stdin: Now the same for COc1ccc(N2CCN(C(=O)Cc3nc(C)cs3)[C@@H](Cc3ccccc3)C2)cc1OC1CCCC1
stdout: < 200 nM

stdin: COc1ccc(N2CCN(C(=O)Cc3cccnc3)[C@@H](Cc3ccccc3)C2)cc1OC1CCCC1 ?
stdout: < 200 nM

stdin: // same read-out, input: COc1ccc(N2CCN(C(=O)Cc3ncccn3)[C@@H](Cc3ccccc3)C2)cc1OC(C)C
stdout: 200 to 1000 nM

stdin: Likewise for COc1ccc(N2CCN(C(=O)Cc3ccccn3)[C@@H](Cc3ccccc3)C2)cc1OC1CCC1 ?
stdout: < 200 nM

stdin: Try the molecule COc1ccc(N2CCN(C(=O)Cc3c[nH]cn3)[C@@H](Cc3ccccc3)C2)cc1OC1CCC1
stdout: < 200 nM

stdin: // same read-out, input: COc1ccc(N2CCN(C(=O)Cc3n[nH]c([N+](=O)[O-])n3)[C@@H](Cc3ccccc3)C2)cc1OC1CCCC1
stdout: < 200 nM

stdin: Param item: CCc1nn(C(C)C)c2cc(N3CCN(C(=O)CC(N)=O)[C@@H](Cc4ccccc4)C3)ccc12
stdout: > 1000 nM

stdin: Next record, please: COc1ccc(N2CCN(C(=O)Cc3ccccn3)[C@@H](Cc3ccccc3)C2)cc1OC1CCCC1
stdout: < 200 nM

stdin: Also check COc1ccc(N2CCN(C(=O)c3c[nH]c(=O)[nH]3)[C@@H](Cc3ccccc3)C2)cc1OC1CCCC1
stdout: 200 to 1000 nM
